Below, each entry is listed with its recorded Bliss excess.
test system: P31-FUJ (Acute Myeloid Leukemia); test: Bliss excess, mean over the matrix (fraction); higher = more synergy;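 also: after 72 h of two-drug dosing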
# print the numeric value only

Challenge: # Bliss excess lookup, item Cc1c2c(nn1C)CSCc1cc(n(C)n1)CSc1cc(c3ccccc3c1)OCCCc1c(C(=O)O)n(C)c3c-2c(Cl)ccc13 [AZD5991] + Cn1cnc2c(F)c(Nc3ccc(Br)cc3Cl)c(C(=O)NOCCO)cc21 [Selumetinib] (first compound max 1 µM, 7x7, partner max 3 µM)
Response given: 0.0399

Challenge: And the next one, COc1cc2ncnc(Nc3ccc(F)c(Cl)c3)c2cc1OCCCN1CCOCC1 [Gefitinib] + CC(C)n1c(=O)n(C)c2cnc3cc(F)c(-c4ccc(OCCCN5CCCCC5)nc4)cc3c21 [AZD1390] (first compound max 10 µM, 7x7, partner max 0.3 µM) ?
Response given: -0.0201

Challenge: And the next one, C[C@@H](Nc1cc(F)cc(F)c1)c1cc(C(=O)N(C)C)cc2c(=O)cc(N3CCOCC3)oc12 [AZD8186] + C1CN(CCC1(C(=O)N[C@@H](CCO)C2=CC=C(C=C2)Cl)N)C3=NC=NC4=C3C=CN4 [AZD5363] (first compound max 10 µM, 7x7, partner max 10 µM) ?
Response given: -0.03

Challenge: And the next one, Cc1cc2ncnn2cc1Nc1ncc2c(n1)n(C1CCOCC1)c(=O)n2C [AZD7648] + C[C@@H]1COCCN1C2=NC(=NC(=C2)C3(CC3)[S@](=N)(=O)C)C4=C5C=CNC5=NC=C4 [AZD6738] (first compound max 10 µM, 7x7, partner max 10 µM) ?
Response given: 0.0131

Challenge: And the next one, CC1(C)CCC(CN2CCN(c3ccc(C(=O)NS(=O)(=O)c4ccc(NCC5CCOCC5)c([N+](=O)[O-])c4)c(Oc4cnc5[nH]ccc5c4)c3)CC2)=C(c2ccc(Cl)cc2)C1 [Venetoclax] + Cc1cc2ncnn2cc1Nc1ncc2c(n1)n(C1CCOCC1)c(=O)n2C [AZD7648] (first compound max 1 µM, 7x7, partner max 10 µM) ?
Response given: -0.015

Challenge: And the next one, Cc1nc(Nc2ncc(C(=O)Nc3c(C)cccc3Cl)s2)cc(N2CCN(CCO)CC2)n1 [Dasatinib] + CC(=O)Nc1cccc(-n2c(=O)n(C3CC3)c(=O)c3c(Nc4ccc(I)cc4F)n(C)c(=O)c(C)c32)c1 [Trametinib] (first compound max 2 µM, 7x7, partner max 1 µM) ?
Response given: 0.108

Challenge: And the next one, C[C@@H](Oc1cc(-c2cnn(C3CCNCC3)c2)cnc1N)c1c(Cl)ccc(F)c1Cl [Crizotinib] + Cn1cnc2c(F)c(Nc3ccc(Br)cc3Cl)c(C(=O)NOCCO)cc21 [Selumetinib] (first compound max 10 µM, 7x7, partner max 10 µM) ?
Response given: -0.0781

Challenge: And the next one, Cc1c2c(nn1C)CSCc1cc(n(C)n1)CSc1cc(c3ccccc3c1)OCCCc1c(C(=O)O)n(C)c3c-2c(Cl)ccc13 [AZD5991] + C[C@@H]1COCCN1C2=NC(=NC(=C2)C3(CC3)[S@](=N)(=O)C)C4=C5C=CNC5=NC=C4 [AZD6738] (first compound max 1 µM, 7x7, partner max 10 µM) ?
Response given: -0.0033

Challenge: And the next one, COc1cccc(OCCCN)c1-c1cc(Nc2cnc(C#N)cn2)n[nH]1 [Prexasertib] + CCc1c2c(nc3ccc(O)cc13)-c1cc3c(c(=O)n1C2)COC(=O)[C@]3(O)CC [SN-38] (first compound max 1 µM, 7x7, partner max 0.3 µM) ?
Response given: -0.0507
